# MEASUREMENT TARGET: UniProtKB P54455
# Sequence (P54455 with tags, fused parts or gaps): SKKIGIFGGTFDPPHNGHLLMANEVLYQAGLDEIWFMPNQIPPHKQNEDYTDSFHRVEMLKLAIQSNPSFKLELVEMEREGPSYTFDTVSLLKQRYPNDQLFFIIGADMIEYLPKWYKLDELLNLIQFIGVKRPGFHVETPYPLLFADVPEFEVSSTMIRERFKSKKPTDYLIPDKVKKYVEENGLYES
ASSAY READOUT: Ki

Q: Look up Ki for this compound: NC(=O)c1ccc[n+]([C@@H]2O[C@H](COP(=O)([O-])O)[C@@H](O)[C@H]2O)c1 [NMN, Nicotinamide Mononucleotide]
Ans: 17 mM
